- test.system: Hepatitis C Virus NS3/4A protease D168V (Hepatitis C virus genotype 1b, UniProt O92972, D1194V)
- assay.comment: biochemical
readout.label: pEC50
Just the number, please; pEC50 means minus log10 of the concentration in mol/L.

According to the records, this compound C=C[C@@H]1C[C@]1(NC(=O)[C@@H]1C[C@@H](OC(=O)N2Cc3cccc(F)c3C2)CN1C(=O)[C@@H](NC(=O)OC(C)(C)C)C(C)(C)C)C(=O)NS(=O)(=O)C1CC1 [Compound 10] displays pEC50 of 7.40

###

- test.system: Hepatitis C Virus NS3/4A protease V36M (Hepatitis C virus genotype 1b, UniProt O92972, V1062M)
- assay.comment: HCV NS3/4A protease FRET assay, V36M
- condition.summary: V36M; read-out: Anti-HCV protease activity EC50
readout.label: EC50 (nM)
// units = nM; emit number, no label

Data point: `C=C[C@@H]1C[C@]1(NC(=O)[C@@H]1C[C@@H](OC(=O)N2Cc3cccc(F)c3C2)CN1C(=O)[C@@H](NC(=O)OC(C)(C)C)C(C)(C)C)C(=O)NS(=O)(=O)C1CC1` ; EC50 = 3.4

###

- assay.comment: Cytotoxicity assay in human PBM cells
- Assay type: cell-based
- condition.summary: human, human PBM cells
readout.label: IC50

In plain terms, C=C[C@@H]1C[C@]1(NC(=O)[C@@H]1C[C@@H](OC(=O)N2Cc3cccc(F)c3C2)CN1C(=O)[C@@H](NC(=O)OC(C)(C)C)C(C)(C)C)C(=O)NS(=O)(=O)C1CC1 [Compound 10] has a documented IC50 of > 100 µM

###

- test.system: Chymase (Homo sapiens)
readout.label: IC50

GET /value?item= `C=C[C@@H]1C[C@]1(NC(=O)[C@@H]1C[C@@H](OC(=O)N2Cc3cccc(F)c3C2)CN1C(=O)[C@@H](NC(=O)OC(C)(C)C)C(C)(C)C)C(=O)NS(=O)(=O)C1CC1` &field=IC50 returns > 100 µM

From: patent US8729014B2
